// data source = patent US20220177604A1

Property: Ratio OD450 pH 7.4/pH 6; scope: individual binders
molecular target: recombinant Motavizumab human IgE (rMota-hIgE) (human) (UniProt P01854); assay: hIgE binding ELISA
Sequence (P01854 other isoform, or with tags, fused parts or gaps limits assumed, form in doubt): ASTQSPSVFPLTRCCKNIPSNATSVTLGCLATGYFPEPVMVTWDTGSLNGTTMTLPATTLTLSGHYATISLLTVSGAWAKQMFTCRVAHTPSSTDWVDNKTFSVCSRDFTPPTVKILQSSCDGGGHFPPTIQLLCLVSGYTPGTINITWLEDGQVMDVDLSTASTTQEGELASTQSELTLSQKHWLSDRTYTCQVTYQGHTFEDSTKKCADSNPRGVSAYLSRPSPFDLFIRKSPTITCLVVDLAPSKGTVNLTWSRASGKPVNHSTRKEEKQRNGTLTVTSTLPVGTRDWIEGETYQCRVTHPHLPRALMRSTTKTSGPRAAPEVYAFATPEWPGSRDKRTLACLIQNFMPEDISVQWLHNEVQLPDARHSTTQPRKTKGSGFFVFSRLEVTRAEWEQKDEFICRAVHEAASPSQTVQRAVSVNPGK
Respond numerically, and do not add a unit to the figure.

{"columns": ["BINDER", "VAL"],
 "data": [
  ["CL-2C mAb 10 (antibody, V domains shown) VH: QVQLVQSGAEVMKPGSSVKVSCKASGYTFSWYWLEWVRQAPGHGLEWMGEIDPGTFTTNYNEKFKARVTFTADTSTSTAYMELSSLRSEDTAVYYCARFSHFSGSNYDYFDYWGQGTLVTVSS VL: EIVMTQSPATLSVSPGERATLSCRASQSIGTNIHWYQQKPGQAPRLLIYHASESISGIPARFSGSGSGTEFTLTISSLQSEDFAVYYCHQSDSWPTTFGGGTKVEIK", 2.77]
]}

Next, consider the following binder.
// recorded Ratio OD450 pH 7.4/pH 6 for CL-2C mAb 31 (antibody, V domains shown) VH: QVQLVQSGAEVMKPGSSVKVSCKASGYTFSWYWLEWVRQAPGHGLEWMGEIDPGTFTTHYNEKFKARVTFTADTSTSTAYMELSSLRSEDTAVYYCARFSHFSGSHYDYFDYWGQGTLVTVSS VL: EIVMTQSPATLSVSPGERATLSCRASQSIGTNIHWYQQKPGQAPRLLIYYASESISGIPARFSGSGSGTEFTLTISSLQSEDFAVYYCQQSWSHPTTFGGGTKVEIK : 10.9
